This collection of values is drawn from patent US20090291977A1.

biological target: Porcine gastric H+/K+-ATPase (Sus scrofa); construct: The gastric vesicles were collected from interface on 0.25 M sucrose layer containing 7% Ficoll; assay: Ion-leaky porcine gastric H+/K+-ATPase inhibition; conditions: ion-leaky vesicles, 5 mM KCl, pH 6.4, 37° C., 30 minutes
Sequence (P19156 2-1034 limits assumed): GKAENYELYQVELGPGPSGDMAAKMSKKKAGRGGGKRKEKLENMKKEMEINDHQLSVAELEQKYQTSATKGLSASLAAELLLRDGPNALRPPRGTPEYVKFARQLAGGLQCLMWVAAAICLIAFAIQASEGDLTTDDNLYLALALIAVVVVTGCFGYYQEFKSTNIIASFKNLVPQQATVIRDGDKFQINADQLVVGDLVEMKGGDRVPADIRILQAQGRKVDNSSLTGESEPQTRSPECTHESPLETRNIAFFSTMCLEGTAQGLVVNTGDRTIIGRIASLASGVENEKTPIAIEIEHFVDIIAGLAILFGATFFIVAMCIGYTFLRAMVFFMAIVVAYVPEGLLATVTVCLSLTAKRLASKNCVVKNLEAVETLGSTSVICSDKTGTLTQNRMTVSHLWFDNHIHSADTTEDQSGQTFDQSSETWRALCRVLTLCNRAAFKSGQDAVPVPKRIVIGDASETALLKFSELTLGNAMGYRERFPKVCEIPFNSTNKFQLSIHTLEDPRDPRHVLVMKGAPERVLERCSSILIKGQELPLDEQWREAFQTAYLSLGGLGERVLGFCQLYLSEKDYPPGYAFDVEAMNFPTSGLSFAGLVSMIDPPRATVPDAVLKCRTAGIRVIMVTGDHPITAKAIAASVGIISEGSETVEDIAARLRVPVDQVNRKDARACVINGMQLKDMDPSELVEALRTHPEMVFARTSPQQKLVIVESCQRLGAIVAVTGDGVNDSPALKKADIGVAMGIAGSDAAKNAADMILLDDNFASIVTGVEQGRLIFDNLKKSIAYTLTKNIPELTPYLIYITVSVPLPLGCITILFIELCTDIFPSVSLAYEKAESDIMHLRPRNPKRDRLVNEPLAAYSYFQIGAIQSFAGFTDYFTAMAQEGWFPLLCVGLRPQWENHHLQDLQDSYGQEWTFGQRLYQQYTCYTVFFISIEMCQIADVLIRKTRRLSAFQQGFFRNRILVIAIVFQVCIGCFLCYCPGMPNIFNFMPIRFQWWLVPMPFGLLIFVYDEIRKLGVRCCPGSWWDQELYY
Sequence (P18434 whole entry partner): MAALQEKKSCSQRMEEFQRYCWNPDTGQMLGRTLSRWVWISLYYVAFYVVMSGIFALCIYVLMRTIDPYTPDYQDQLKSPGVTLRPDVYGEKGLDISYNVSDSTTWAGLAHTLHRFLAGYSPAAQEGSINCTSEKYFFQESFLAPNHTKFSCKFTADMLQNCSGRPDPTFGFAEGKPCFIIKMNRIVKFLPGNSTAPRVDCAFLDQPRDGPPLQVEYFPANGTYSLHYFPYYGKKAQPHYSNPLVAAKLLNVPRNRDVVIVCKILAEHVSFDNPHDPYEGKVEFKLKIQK
Property label: pIC50
Scale for pIC50: -log10 of concentration given in mol/L; no unit attached.

# input So what's the measured pIC50 for this one? Cc1nc2c(NC3CCOc4ccc(F)cc43)cc(C(=O)N(C)CCO)cn2c1C (single isomer, unassigned) [Example 13-2]
# output 5.96

# input So what's the measured pIC50 for this one? Cc1nc2c(NC3CCOc4ccccc43)cc(C(=O)N(C)CCO)cn2c1C (racemic) [Example 2-1]
# output 7.30

# input So what's the measured pIC50 for this one? Cc1nc2c(NC3COCc4ccccc43)cc(C(=O)N(C)C)cn2c1C (single isomer, unassigned; (-)) [Example 3-2]
# output 6.90
